# TEST SYSTEM: human FPR2 receptors (Homo sapiens)
# Sequence (P25090 whole entry): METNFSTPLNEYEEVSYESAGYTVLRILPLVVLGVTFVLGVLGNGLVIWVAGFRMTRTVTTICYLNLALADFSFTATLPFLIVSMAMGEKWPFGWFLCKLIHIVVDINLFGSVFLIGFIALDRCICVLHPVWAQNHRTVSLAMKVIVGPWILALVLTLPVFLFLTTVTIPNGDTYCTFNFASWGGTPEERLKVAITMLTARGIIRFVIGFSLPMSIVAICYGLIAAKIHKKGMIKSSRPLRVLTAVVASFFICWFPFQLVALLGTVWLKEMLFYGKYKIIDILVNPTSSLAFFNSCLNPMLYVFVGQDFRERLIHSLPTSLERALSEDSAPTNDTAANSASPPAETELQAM
# PROTOCOL NOTES: FPR2 cAMP assay in CHO cells overexpressing human FPR2 (HTRF)
# Assay type: cell-based
# CONDITION INFO: CHO cells overexpressing human FPR2; forskolin 5 μM; inhibition of cAMP production; read-out: hFPR2 cAMP2 EC50
Please provide measured EC50 for the entries that follow.
One number for each entry, in nM.

# example entries with known answers
Lookup: Retrieve EC50 on human FPR2 receptors (Homo sapiens); query COc1cc(F)c([C@@H]2CNC(=O)[C@H]2Nc2nnc(-c3ccc(SC(F)(F)F)cc3)o2)c(F)c1
Found: 6.7

Lookup: Provide human FPR2 receptors (Homo sapiens) EC50 reading for COc1cc(F)c([C@@H]2CNC(=O)[C@H]2Nc2cc(-c3ccc(Cl)cc3)on2)c(F)c1 .
Found: 10

Lookup: GET EC50 | system: human FPR2 receptors (Homo sapiens) | item: COc1cc(F)c([C@@H]2CNC(=O)[C@H]2Nc2cc(-c3ccc(C(F)F)cc3)on2)c(F)c1
Found: 890

The record that follows has no EC50 shown yet.
Lookup: Look up human FPR2 receptors (Homo sapiens) data: EC50 of COc1cc(F)c([C@@H]2CNC(=O)[C@H]2Nc2nnc(-c3ccc(Oc4ccc(C(F)(F)F)nc4)cc3)o2)c(F)c1 , then report it.
Found: 71

###

# TEST SYSTEM: UniProt:P25090
# PROTOCOL NOTES: FPR2 cAMP assay in CHO cells overexpressing human FPR2 (HTRF)
# Type: cell-based
# CONDITION INFO: hFPR2 assay; potency bins; read-out: hFPR2 agonist activity EC50
I'd appreciate it if you could supply EC50 values for the items below.

# annotated cases, reported EC50 shown
Lookup: State, in one line, measured EC50 of COc1cc(F)c([C@@H]2CNC(=O)[C@H]2Nc2nnc(-c3ccc(-n4cccn4)cc3)o2)c(F)c1
Found: 0.15 to 1 µM

Lookup: Read the entry COc1cc(F)c([C@@H]2CNC(=O)[C@H]2Nc2ncc(-c3ccc(Cl)cc3)o2)c(F)c1 and write its reported EC50.
Found: 0.15 to 1 µM

Lookup: Name the recorded EC50 of the molecule listed here: COc1cc(F)c([C@@H]2CNC(=O)[C@H]2Nc2noc3cc(Cl)ccc23)c(F)c1
Found: ≤ 0.04 µM

# per-item lookup of EC50; items listed below
1. COc1cc(F)c([C@@H]2CNC(=O)[C@H]2Nc2nnc(-c3ccc(C(F)F)cc3)o2)c(F)c1
2. COc1cc(F)c([C@@H]2CNC(=O)[C@H]2Nc2nnc(-c3ccc(C(C)C)cc3)o2)c(F)c1
3. COc1cc(F)c([C@@H]2CNC(=O)[C@H]2Nc2nnc(-c3ccc(C4CC4)cc3)o2)c(F)c1
4. COc1cc(F)c([C@@H]2CNC(=O)[C@H]2Nc2nnc(-c3ccc(Cl)cc3)o2)c(F)c1

Found:
["0.04 to 0.15 µM", "0.15 to 1 µM", "0.15 to 1 µM", "≤ 0.04 µM"]

###

# TEST SYSTEM: human FPR2 receptors (Homo sapiens)
# PROTOCOL NOTES: FPR2 cAMP assay in CHO cells overexpressing human FPR2 (HTRF)
# Format: cell-based
# CONDITION INFO: hFPR2 assay; potency bins; read-out: hFPR2 agonist activity EC50
QUANTITY MEASURED: EC50

Solved cases below.
Lookup: Identify EC50 associated with the compound COc1cc(F)c([C@@H]2CNC(=O)[C@H]2Nc2nnc(-c3ccc(Oc4ccccc4)cc3)o2)c(F)c1
Found: ≤ 40 nM

Lookup: Name the recorded EC50 of the item COc1cc(F)c([C@@H]2CNC(=O)[C@H]2Nc2nnc(-c3ccc(Oc4cnc(Cl)cn4)cc3)o2)c(F)c1 in your answer.
Found: 40 to 150 nM

Quick batch: EC50 for everything below.
1. COc1cc(F)c([C@@H]2CNC(=O)[C@H]2Nc2nnc(-c3ccc(C#N)cc3)o2)c(F)c1
2. COc1cc(F)c([C@@H]2CNC(=O)[C@H]2Nc2nnc(-c3ccc(C(F)(F)F)cn3)o2)c(F)c1

Found:
150 to 1000 nM
150 to 1000 nM
